- settings: in isopropanol, 323.15 K
measurement label: solubility (mole fraction)
One number for each entry.

q: Respond only with solubility (mole fraction) recorded for `Oc1ccc([C@@H]2COc3cc(O)ccc3C2)cc1`
a: 0.127

###

- settings: in n-heptane, 278.15 K
measurement label: solubility (mole fraction)
One number for each entry.

q: Respond only with solubility (mole fraction) recorded for `Oc1ccc([C@@H]2COc3cc(O)ccc3C2)cc1`
a: 0.00049

###

- settings: in isopropanol, 298.15 K
measurement label: solubility (mole fraction)
Numbers only.

q: Respond only with solubility (mole fraction) recorded for `Oc1ccc([C@@H]2COc3cc(O)ccc3C2)cc1`
a: 0.065
